target: T1, EsCas13d, nuclease-dead (Eubacterium siraeum, UniProt B0MS50, R295A;H300A;R849A;H854A)
T1 sequence: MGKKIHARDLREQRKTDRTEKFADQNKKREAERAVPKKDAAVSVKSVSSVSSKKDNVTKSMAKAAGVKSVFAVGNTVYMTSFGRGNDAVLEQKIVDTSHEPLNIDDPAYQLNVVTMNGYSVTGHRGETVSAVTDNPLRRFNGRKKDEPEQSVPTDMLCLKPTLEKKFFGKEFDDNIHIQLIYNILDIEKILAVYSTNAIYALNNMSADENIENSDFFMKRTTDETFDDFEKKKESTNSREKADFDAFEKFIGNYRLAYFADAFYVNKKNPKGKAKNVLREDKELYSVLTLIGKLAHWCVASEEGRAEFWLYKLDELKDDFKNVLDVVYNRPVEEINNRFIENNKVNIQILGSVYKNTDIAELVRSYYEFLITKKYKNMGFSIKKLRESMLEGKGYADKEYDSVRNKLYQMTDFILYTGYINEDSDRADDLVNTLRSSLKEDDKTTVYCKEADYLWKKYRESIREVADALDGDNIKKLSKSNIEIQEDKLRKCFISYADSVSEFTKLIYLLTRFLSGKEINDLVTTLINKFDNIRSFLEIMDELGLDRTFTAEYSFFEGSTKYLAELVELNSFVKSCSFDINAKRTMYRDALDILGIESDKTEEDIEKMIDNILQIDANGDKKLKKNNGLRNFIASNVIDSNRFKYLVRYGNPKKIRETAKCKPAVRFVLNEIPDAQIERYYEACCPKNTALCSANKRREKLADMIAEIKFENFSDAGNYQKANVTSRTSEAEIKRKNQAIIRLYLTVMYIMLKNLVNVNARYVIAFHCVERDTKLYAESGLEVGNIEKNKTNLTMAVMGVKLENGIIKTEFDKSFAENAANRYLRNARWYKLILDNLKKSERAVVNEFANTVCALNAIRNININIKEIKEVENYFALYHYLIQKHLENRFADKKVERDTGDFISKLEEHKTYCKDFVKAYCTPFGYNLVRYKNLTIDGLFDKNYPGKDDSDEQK
measurementDescription: crRNA (strand 1, pre-loaded); Mg2+; 40 mM Tris-HCl pH 7.5, 150 mM NaCl, 6 mM MgCl2, 1 mM DTT, 0.1% Tween-20, 0.2 mg/ml BSA; 25 C; 10 min per concentration, then washed
conditionDetails: tags: His6-TwinStrep-SUMO cleaved; N-terminal SNAP kept (SNAP-Surface 488); label: 3' end held by stalled T7 RNA polymerase
In plain terms, low Kd, meaning strictly below 30 nM, gives yes (1), and everything else gives no (0).

>  <binder>
target 1 C6A,A9C (mixed) RNA 1: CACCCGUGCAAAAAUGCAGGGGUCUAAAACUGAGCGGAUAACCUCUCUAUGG RNA 2: GGGAAUGGAUCCACAUCUACGAAUUCGUACCAUAGAGAGGUUCUCAGCUCACCGAGAUCGGAAGAGCACACGU

>  <label>
yes (1)

$$$$
>  <binder>
target 3 insA 3' of 10,insC 3' of 8 (mixed) RNA 1: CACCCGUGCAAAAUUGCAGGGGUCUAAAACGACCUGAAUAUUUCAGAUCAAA RNA 2: GGGAAUGGAUCCACAUCUACGAAUUCGUUUUUGAUCUGAAAUAAUCUCAGGUCUGCAGAUCGGAAGAGCACACGU

>  <label>
no (0)

$$$$
>  <binder>
target 1 C7U,G17A (mixed) RNA 1: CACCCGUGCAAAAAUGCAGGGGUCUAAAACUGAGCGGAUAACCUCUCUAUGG RNA 2: GGGAAUGGAUCCACAUCUACGAAUUCGUACCAUAAAGAGGUUAUUCGCUCACCGAGAUCGGAAGAGCACACGU

>  <label>
no (0)

$$$$
>  <binder>
target 3 U2A,A11G (mixed) RNA 1: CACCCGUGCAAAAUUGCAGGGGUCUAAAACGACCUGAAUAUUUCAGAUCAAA RNA 2: GGGAAUGGAUCCACAUCUACGAAUUCGUUUUUGAUCUGAAGUAUUCAGGACUGCAGAUCGGAAGAGCACACGU

>  <label>
no (0)

$$$$
>  <binder>
target 2 MT 5'PFS UGC 3'PFS CAC (mixed) RNA 1: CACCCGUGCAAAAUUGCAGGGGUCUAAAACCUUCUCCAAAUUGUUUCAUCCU RNA 2: GGGAAUGGAUCCACAUCUACGAAUUCUGCAGGAUGAAACAAUUUGGAGAAGCACAGAUCGGAAGAGCACACGU

>  <label>
yes (1)

$$$$
>  <binder>
target 1 G5C,U8A (mixed) RNA 1: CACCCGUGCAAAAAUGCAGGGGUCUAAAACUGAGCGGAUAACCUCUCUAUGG RNA 2: GGGAAUGGAUCCACAUCUACGAAUUCGUACCAUAGAGAGGUUAACCCCUCACCGAGAUCGGAAGAGCACACGU

>  <label>
no (0)

$$$$
>  <binder>
target 1 MT 5'PFS AAG 3'PFS AAG (mixed) RNA 1: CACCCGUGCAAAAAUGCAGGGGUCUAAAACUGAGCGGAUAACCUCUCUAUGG RNA 2: GGGAAUGGAUCCACAUCUACGAAUUCAAGCCAUAGAGAGGUUAUCCGCUCAAAGAGAUCGGAAGAGCACACGU

>  <label>
yes (1)

$$$$
>  <binder>
target 1 G5A,A14G (mixed) RNA 1: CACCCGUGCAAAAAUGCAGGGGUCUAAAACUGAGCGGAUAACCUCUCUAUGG RNA 2: GGGAAUGGAUCCACAUCUACGAAUUCGUACCAUAGAGGGGUUAUCCACUCACCGAGAUCGGAAGAGCACACGU

>  <label>
no (0)

$$$$
